# targetOrTestSystem: human M1 receptor (Homo sapiens (Human), UniProt P11229)
# Sequence (P11229 whole entry): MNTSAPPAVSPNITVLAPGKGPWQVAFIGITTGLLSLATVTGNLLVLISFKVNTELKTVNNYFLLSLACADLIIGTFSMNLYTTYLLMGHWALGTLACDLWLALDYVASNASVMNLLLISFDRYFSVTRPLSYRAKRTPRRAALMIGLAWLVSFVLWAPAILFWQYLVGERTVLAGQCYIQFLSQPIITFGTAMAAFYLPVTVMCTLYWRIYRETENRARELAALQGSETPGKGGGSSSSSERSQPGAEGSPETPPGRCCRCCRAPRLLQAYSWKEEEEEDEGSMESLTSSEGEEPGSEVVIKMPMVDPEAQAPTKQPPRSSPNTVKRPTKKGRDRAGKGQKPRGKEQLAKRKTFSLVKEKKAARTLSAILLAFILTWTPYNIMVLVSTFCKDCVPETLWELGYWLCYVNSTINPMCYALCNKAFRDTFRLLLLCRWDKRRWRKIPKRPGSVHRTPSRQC
# testMethodNotes: Radioligand (tritiated N-methylscopolamine) binding assay, M1
# settings: CHO cell membranes expressing human M1; 1.5 nM tritiated N-methylscopolamine; 90 min, 37° C.; read-out: Ki against M1 receptor (Table 21, M1)
# Description: Binding affinity (Ki) of compounds was measured by inhibition of radioligand binding to membranes from CHO cells expressing human M1, M2, M3, M4 and M5 receptors. […] Harvesting and radioactivity counting was conducted as previously described (see, e.g., Hoare et al., Mol. Pharmacol. 2003 63(3):751-65); Erratum at Mol. Pharmacol. 2005 July; 68(1): 260).
// Ki lookup, one value per entry

A selection of reference data follows.
[
  {
    "compound": "C[C@@H]1CN(c2cc(F)c(C#N)cc2F)CCN1C(=O)NCCC1CCN(Cc2ccccc2)CC1",
    "targetOrTestSystem": "human M1 receptor (Homo sapiens (Human), UniProt P11229)",
    "Ki": "> 1000 nM"
  },
  {
    "compound": "N#Cc1cc(OC(F)(F)F)cc(N2CCC(C(=O)NCCC3CCN(Cc4ccccc4)CC3)CC2)c1",
    "targetOrTestSystem": "human M1 receptor (Homo sapiens (Human), UniProt P11229)",
    "Ki": "100 to 1000 nM"
  },
  {
    "compound": "C[C@@H]1CN(c2ccc(C#N)cc2)C[C@H](C)N1C(=O)NCCC1CCN(Cc2ccccc2)CC1",
    "targetOrTestSystem": "human M1 receptor (Homo sapiens (Human), UniProt P11229)",
    "Ki": "> 1000 nM"
  }
]

Req: Which value of Ki has been reported for O=C(NCC(O)C1CCN(Cc2ccccc2)CC1)C1CCN(c2ccc(OC(F)(F)F)cc2)CC1 (centres unmarked) in the records?
Resp: > 1000 nM

Req: Can you check Cc1c(C(=O)NCCC2(O)CCN(Cc3ccccc3)CC2)cnc2cc(-c3cccc(C(F)(F)F)c3)nn12 next?
Resp: 100 to 1000 nM

====

// Ki lookup, one value per entry
# targetOrTestSystem: human M5 receptor (Homo sapiens (Human))
# Sequence (P08912 whole entry): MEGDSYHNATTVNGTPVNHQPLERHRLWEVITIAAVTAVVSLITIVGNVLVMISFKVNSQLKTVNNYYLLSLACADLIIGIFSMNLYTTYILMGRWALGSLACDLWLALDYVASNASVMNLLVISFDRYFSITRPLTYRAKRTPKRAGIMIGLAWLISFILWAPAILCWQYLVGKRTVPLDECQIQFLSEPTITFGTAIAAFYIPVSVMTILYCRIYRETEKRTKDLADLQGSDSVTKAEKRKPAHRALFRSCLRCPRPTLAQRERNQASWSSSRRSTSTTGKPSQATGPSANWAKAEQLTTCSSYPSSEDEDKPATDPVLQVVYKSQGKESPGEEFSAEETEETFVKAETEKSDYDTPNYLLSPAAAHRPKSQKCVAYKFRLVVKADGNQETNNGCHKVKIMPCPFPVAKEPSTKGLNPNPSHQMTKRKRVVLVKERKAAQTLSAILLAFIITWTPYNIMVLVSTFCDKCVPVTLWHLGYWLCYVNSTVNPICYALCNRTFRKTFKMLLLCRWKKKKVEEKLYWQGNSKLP
# testMethodNotes: Radioligand (tritiated N-methylscopolamine) binding assay, M5
# settings: CHO cell membranes expressing human M5; 1.5 nM tritiated N-methylscopolamine; 90 min, 37° C.; read-out: Ki against M5 receptor (Table 21, M5)

Req: Under human M5 receptor (Homo sapiens (Human)): Ki value of C[C@H]1CN(c2ncc(Cl)cn2)CCC1C(=O)NCCC1CCN(Cc2ccccc2)CC1 (some centres unmarked) [20-3] ?
Resp: > 1 µM

====

# targetOrTestSystem: human M4 receptor (Homo sapiens (Human))
# Sequence (P08173 whole entry): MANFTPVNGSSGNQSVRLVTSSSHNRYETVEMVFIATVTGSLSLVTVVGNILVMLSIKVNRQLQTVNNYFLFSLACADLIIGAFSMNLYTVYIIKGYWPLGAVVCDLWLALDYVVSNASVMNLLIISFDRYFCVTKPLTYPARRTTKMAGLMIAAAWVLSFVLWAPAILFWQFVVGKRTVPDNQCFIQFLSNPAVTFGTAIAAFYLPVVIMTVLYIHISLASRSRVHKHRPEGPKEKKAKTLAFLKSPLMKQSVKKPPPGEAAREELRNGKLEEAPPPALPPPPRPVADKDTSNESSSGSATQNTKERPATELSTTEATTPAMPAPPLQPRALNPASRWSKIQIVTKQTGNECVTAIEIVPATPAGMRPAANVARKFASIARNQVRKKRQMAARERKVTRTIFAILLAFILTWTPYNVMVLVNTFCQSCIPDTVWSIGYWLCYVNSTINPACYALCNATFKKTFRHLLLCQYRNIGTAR
# testMethodNotes: Radioligand (tritiated N-methylscopolamine) binding assay, M4
# settings: Ki against the M4 receptor; membranes from CHO cells expressing human M4; tritiated N-methylscopolamine 1.5 nM; read-out: Ki
experimentalReadout: Ki

[
  {
    "compound": "C[C@@H]1CN(c2ccc(F)c(C#N)c2)CCN1C(=O)NC[C@@H](O)C1CCN(Cc2ccccc2)CC1 [3-18]",
    "targetOrTestSystem": "human M4 receptor (Homo sapiens (Human))",
    "assayResult": "< 10 nM"
  },
  {
    "compound": "COc1cccnc1N1CCN(C(=O)NCCC2CCN(Cc3ccccc3)CC2)[C@H](C)C1 [4-8]",
    "targetOrTestSystem": "human M4 receptor (Homo sapiens (Human))",
    "assayResult": "100 to 1000 nM"
  },
  {
    "compound": "O=C(NCCN1CCC(Cc2ccccc2)CC1)c1ccn2cc(-c3ccc(OC(F)(F)F)cc3)nc2c1 [9-68]",
    "targetOrTestSystem": "human M4 receptor (Homo sapiens (Human))",
    "assayResult": "100 to 1000 nM"
  },
  {
    "compound": "COc1cccc(CN2CCC(CCNC(=O)c3cnc4cc(-c5ccccc5)nn4c3C)CC2)c1 [19-7]",
    "targetOrTestSystem": "human M4 receptor (Homo sapiens (Human))",
    "assayResult": "100 to 1000 nM"
  },
  {
    "compound": "C[C@@H]1CN(c2ncc(C(F)(F)F)cn2)C[C@@H](C)N1C(=O)NCCC1CCN(Cc2ccccc2)CC1 [26-5]",
    "targetOrTestSystem": "human M4 receptor (Homo sapiens (Human))",
    "assayResult": "< 10 nM"
  },
  {
    "compound": "C[C@@H]1CN(c2cc(F)c(F)c(F)c2)CCN1C(=O)NCCC1CCN(Cc2cccc(F)c2)CC1 [6-10]",
    "targetOrTestSystem": "human M4 receptor (Homo sapiens (Human))",
    "assayResult": "10 to 100 nM"
  }
]

# context switch: different compound, same Ki
Req: Which value of Ki has been reported for C[C@@H]1CN(c2ncc(C(F)(F)F)cn2)CCN1C(=O)NCCC1CCN(Cc2ccccc2)CC1 [3-9] in the records?
Resp: < 10 nM
